pIC50: −log10 of the molar value.
Quick record of pIC50 values for MMP-14CD (membrane-type MMP-1 catalytic domain) (Homo sapiens, UniProt P50281).
parameter.measured: pIC50

smiles_representation=CC(C)(NS(=O)(=O)c1ccc2oc3cc(Cl)ccc3c2c1)C(=O)NO value_observed=6.52
smiles_representation=O=C(NO)C1(NS(=O)(=O)c2ccc3oc4cc(Br)ccc4c3c2)CCCC1 value_observed=6.47
smiles_representation=O=C(NO)C1(NS(=O)(=O)c2ccc3c(c2)oc2ccccc23)CCOCC1 value_observed=8.24
smiles_representation=O=C(O)C1(NS(=O)(=O)c2ccc3c(c2)oc2ccccc23)CCCCC1 value_observed=7.58

###

Target: MMP-1FL (collagenase-1 full-length enzyme) (Homo sapiens, UniProt P03956)
Sequence (P03956 100-469): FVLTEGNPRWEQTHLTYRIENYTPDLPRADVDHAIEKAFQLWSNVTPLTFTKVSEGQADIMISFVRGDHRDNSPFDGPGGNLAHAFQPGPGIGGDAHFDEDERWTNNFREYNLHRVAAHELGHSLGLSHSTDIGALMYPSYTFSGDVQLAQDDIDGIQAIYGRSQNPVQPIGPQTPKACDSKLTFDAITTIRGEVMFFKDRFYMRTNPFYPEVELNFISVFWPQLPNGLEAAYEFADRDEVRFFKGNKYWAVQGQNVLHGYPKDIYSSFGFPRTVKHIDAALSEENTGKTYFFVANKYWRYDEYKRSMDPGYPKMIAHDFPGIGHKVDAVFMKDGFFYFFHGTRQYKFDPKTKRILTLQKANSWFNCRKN
Measured IC50 accompanies every entry in the list below.
parameter.measured: IC50 (µM)

smiles_representation=CC(C)(NS(=O)(=O)c1ccc2oc3cc(Cl)ccc3c2c1)C(=O)NO test_system="MMP-1FL (collagenase-1 full-length enzyme) (Homo sapiens, UniProt P03956)" unit_text=µM value_observed=3.05
smiles_representation=CC(C)(NS(=O)(=O)c1ccc2c(c1)oc1ccccc12)C(=O)NO test_system="MMP-1FL (collagenase-1 full-length enzyme) (Homo sapiens, UniProt P03956)" unit_text=µM value_observed=0.905
smiles_representation=CC(C)(NS(=O)(=O)c1ccc2c(c1)oc1ccccc12)C(=O)O test_system="MMP-1FL (collagenase-1 full-length enzyme) (Homo sapiens, UniProt P03956)" unit_text=µM value_observed=8.25

###

Measured pIC50 accompanies every entry in the list below.
target: MMP-9FL (gelatinase B full-length enzyme) (Homo sapiens, UniProt P14780); assay: MMP-9FL inhibition, thiopeptolide substrate hydrolysis; assay type: biochemical; details: average where multiple samples assayed
Sequence (P14780 107-707 limits assumed, species assumed): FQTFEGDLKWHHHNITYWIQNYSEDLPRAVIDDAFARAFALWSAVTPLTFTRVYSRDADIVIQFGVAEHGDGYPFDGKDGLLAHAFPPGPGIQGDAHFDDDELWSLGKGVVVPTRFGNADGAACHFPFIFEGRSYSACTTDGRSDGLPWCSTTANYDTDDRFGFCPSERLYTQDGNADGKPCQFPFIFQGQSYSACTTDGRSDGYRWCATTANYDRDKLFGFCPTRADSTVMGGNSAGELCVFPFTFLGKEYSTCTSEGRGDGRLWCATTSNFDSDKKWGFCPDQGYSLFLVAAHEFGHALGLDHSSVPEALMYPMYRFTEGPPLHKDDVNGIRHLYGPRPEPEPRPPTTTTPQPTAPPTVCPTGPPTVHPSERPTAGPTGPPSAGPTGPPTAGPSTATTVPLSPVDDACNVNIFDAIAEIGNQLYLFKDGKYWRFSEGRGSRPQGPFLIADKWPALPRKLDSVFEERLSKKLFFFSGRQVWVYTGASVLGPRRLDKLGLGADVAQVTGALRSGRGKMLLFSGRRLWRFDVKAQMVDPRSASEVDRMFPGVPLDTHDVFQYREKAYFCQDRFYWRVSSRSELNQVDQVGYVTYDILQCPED
pIC50: −log10 of the molar value.
parameter.measured: pIC50

molecule="O=C(O)C1(NS(=O)(=O)c2ccc3c(c2)oc2ccccc23)CCCCC1 [Example 27]" parameter_measured=pIC50 value_observed=5.43
molecule="O=C(NO)C1(NS(=O)(=O)c2ccc3oc4cc(Br)ccc4c3c2)CCCC1 [Example 32]" parameter_measured=pIC50 value_observed=4.89
molecule="CC(C)(NS(=O)(=O)c1ccc2c(c1)oc1ccccc12)C(=O)NO [Example 30]" parameter_measured=pIC50 value_observed=6.07
